So I've got a bunch of compounds here, and I need their pIC50 values.
- Tested on: HeLa
- Procedure Text: cells
- Type: functional, cell-based
- Test Conditions: Homo sapiens
- Description: Antiproliferative activity against human HeLa cells assessed as growth inhibition after 24 to 48 hrs by CCK8 assay
Numbers only, as −log10 of the molar value.

Consider the reported pIC50 for these compounds:
Cc1ccc(C2=NN(C3=NC(=O)CS3)C(c3ccc4ccccc4c3)C2)cc1 (stereo not given) | 5.75
O=C1CSC(N2N=C(c3ccc(Br)cc3)CC2c2cccc3ccccc23)=N1 (stereo not given) | 5.24
COc1ccc(C2=NN(C3=NC(=O)CS3)C(c3ccc4ccccc4c3)C2)cc1 (stereo not given) | 5.83
O=C1CSC(N2N=C(c3ccc(Cl)cc3)CC2c2ccc3ccccc3c2)=N1 (stereo not given) | 5.20

// switching to the query compound
# return pIC50 for Cc1ccc(C2=NN(C3=NC(=O)CS3)C(c3cccc4ccccc34)C2)cc1C (stereo not given) , test system: HeLa
5.88

* * *

So I've got a bunch of compounds here, and I need their CC50 at 24 h values.
- Procedure Text: Antiproliferative activity against human macrophages assessed as alteration in cell morphology after 24 hrs by CCK8 assay
- Format: cell-based, Macrophage
One number for each entry, in µM.

COc1ccc(C2=NN(C3=NC(=O)CS3)C(c3cccc4ccccc34)C2)cc1 (stereo not given) | 273

State the recorded CC50 at 24 h for every item in the following list.
1. O=C1CSC(N2N=C(c3ccccc3)CC2c2ccc3ccccc3c2)=N1 (stereo not given)
2. Cc1ccc(C2=NN(C3=NC(=O)CS3)C(c3cccc4ccccc34)C2)cc1C (stereo not given)
3. Cc1ccc(C2=NN(C3=NC(=O)CS3)C(c3ccc4ccccc4c3)C2)cc1C (stereo not given)
4. COc1ccc(C2=NN(C3=NC(=O)CS3)C(c3ccc4ccccc4c3)C2)cc1 (stereo not given)

1: 345; 2: 383; 3: 397; 4: 363

* * *

List of IC50 tested on Epidermal growth factor receptor (Homo sapiens, UniProt P00533).
Sequence (P00533 whole entry): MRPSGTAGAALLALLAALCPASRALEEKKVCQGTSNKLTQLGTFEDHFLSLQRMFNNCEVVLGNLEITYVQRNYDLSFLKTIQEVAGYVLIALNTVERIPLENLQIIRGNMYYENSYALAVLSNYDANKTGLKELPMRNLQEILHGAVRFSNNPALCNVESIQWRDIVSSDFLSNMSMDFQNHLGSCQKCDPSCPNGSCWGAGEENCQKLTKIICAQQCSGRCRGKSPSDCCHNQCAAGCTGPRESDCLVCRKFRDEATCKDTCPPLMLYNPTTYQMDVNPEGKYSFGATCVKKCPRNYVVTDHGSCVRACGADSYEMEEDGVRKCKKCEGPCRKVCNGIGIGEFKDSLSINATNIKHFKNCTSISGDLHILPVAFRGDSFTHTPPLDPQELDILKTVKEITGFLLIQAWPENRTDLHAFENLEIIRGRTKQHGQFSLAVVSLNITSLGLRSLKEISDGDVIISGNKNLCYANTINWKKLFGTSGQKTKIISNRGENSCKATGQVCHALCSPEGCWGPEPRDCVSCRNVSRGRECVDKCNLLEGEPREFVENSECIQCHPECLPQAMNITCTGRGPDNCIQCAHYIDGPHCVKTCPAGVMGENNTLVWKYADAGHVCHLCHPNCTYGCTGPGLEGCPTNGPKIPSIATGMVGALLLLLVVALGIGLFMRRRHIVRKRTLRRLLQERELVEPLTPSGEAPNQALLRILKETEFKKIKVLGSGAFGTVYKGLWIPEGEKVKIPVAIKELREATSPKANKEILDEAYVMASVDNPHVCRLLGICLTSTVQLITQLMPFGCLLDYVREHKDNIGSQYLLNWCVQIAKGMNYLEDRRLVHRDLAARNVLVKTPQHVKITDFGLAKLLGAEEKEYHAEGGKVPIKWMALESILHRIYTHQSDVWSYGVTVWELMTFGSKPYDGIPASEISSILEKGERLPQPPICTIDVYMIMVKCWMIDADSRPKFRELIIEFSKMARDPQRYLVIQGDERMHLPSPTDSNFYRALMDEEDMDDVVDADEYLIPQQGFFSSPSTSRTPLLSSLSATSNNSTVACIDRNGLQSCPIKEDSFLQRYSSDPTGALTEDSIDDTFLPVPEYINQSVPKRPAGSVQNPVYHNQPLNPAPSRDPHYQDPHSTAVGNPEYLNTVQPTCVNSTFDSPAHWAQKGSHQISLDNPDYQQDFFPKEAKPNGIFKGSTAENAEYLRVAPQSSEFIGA
Numbers only, in µM.

State the recorded IC50 for every item in the following list.
1. Cc1ccc(C2=NN(C3=NC(=O)CS3)C(c3ccc4ccccc4c3)C2)cc1C (stereo not given)
2. Cc1ccc(C2=NN(C3=NC(=O)CS3)C(c3ccc4ccccc4c3)C2)cc1 (stereo not given)
3. O=C1CSC(N2N=C(c3ccccc3)CC2c2ccc3ccccc3c2)=N1 (stereo not given)

1. 0.12
2. 3.25
3. 6.31

State the recorded IC50 for every item in the following list.
1. Cc1ccc(C2=NN(C3=NC(=O)CS3)C(c3cccc4ccccc34)C2)cc1C (stereo not given)
2. COc1ccc(C2=NN(C3=NC(=O)CS3)C(c3cccc4ccccc34)C2)cc1 (stereo not given)

1.32
5.53

* * *

- Tested on: HeLa
- Procedure Text: cells
- Assay type: functional, cell-based
- Test Conditions: Homo sapiens
Observable: IC50 (µM)
Numbers only, in µM.

O=C1CSC(N2N=C(c3ccc(Cl)cc3)CC2c2cccc3ccccc23)=N1 (centres undefined) | 8.84
COc1ccc(C2=NN(C3=NC(=O)CS3)C(c3cccc4ccccc34)C2)cc1 (centres undefined) | 2.54
Cc1ccc(C2=NN(C3=NC(=O)CS3)C(c3cccc4ccccc34)C2)cc1 (centres undefined) | 3.21
O=C1CSC(N2N=C(c3ccc(Br)cc3)CC2c2ccc3ccccc3c2)=N1 (centres undefined) | 4.22
O=C1CSC(N2N=C(c3ccc(F)cc3)CC2c2ccc3ccccc3c2)=N1 (centres undefined) | 9.17
O=C1CSC(N2N=C(c3ccc(F)cc3)CC2c2cccc3ccccc23)=N1 (centres undefined) | 11.2

State the recorded IC50 for every item in the following list.
1. Cc1ccc(C2=NN(C3=NC(=O)CS3)C(c3ccc4ccccc4c3)C2)cc1C (centres undefined)
2. O=C1CSC(N2N=C(c3ccccc3)CC2c2cccc3ccccc23)=N1 (centres undefined)

1. 0.86
2. 4.62

# return IC50 for O=C1CSC(N2N=C(c3ccccc3)CC2c2ccc3ccccc3c2)=N1 (centres undefined) , test system: HeLa;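 also: growth inhibition of HeLa cells measured with a CCK8 readout after 24–48 h exposure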
3.18
